Origin of the recorded values: patent US20120035161A1

- Measurement target: Serotonin (5-Hydroxytryptamine) 5-HT1B (Rattus norvegicus, UniProt P28564)
- Construct: from tissue
- Sequence (P28564 whole entry): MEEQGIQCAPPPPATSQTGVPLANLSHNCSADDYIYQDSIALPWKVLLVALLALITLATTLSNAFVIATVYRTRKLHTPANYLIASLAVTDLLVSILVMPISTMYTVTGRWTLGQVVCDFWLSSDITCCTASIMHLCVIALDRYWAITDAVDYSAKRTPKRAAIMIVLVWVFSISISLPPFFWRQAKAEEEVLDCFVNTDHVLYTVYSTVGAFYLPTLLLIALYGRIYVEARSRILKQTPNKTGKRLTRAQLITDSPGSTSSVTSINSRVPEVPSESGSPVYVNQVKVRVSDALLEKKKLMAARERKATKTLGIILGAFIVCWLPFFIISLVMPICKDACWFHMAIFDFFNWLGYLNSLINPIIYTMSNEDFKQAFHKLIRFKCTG
- Protocol notes: Assay 271200 radioligand binding, 5-HT1B
- Set-up: species or system Wistar Rat
- Experimental conditions: 0.1 μM
Metric: inhibition at 0.1 µM (%)
Give the quantity in %, number only.

Structure	Test value
FC(F)(F)c1ccc2c(c1)N(CCCC1CCNCC1)c1ccccc1S2	2

Challenge: Which measured inhibition at 0.1 µM value corresponds to `FC(F)(F)c1ccc2c(c1)N(CCCN1CCNCC1)c1ccccc1S2` ?
Response given: 6

Challenge: Param item: `NCCCN1CCC(CCCN2c3ccccc3Sc3ccc(C(F)(F)F)cc32)CC1`
Response given: -5

Challenge: Param item: `CNCC(=O)NCCN1CCC(CCCN2c3ccccc3Sc3ccc(C(F)(F)F)cc32)CC1`
Response given: -7

Challenge: Param item: `CN(C)S(=O)(=O)c1ccc2c(c1)N(CCCN1CCN(CCN)CC1)c1ccccc1S2`
Response given: 23

Challenge: Param item: `NCC(=O)NCCN1CCN(CCCN2c3ccccc3Sc3ccc(C(F)(F)F)cc32)CC1`
Response given: 13
